- Target Entity: Aromatase (Homo sapiens)
- Assay Summary: qHTS assay to identify aromatase inhibitors (AID 743083); note: nearly all actives have a fitted effect of over 55% in size
- Setup Conditions: MCF-7 aro ERE, testosterone-driven ERE luciferase, 24 h; series mostly up to 70.3 µM
Results filed as inconclusive are left out. The source made the active and inactive calls. Calls come from the whole dose curve; as a rule, active = well fitted inhibition curve with a large enough effect in the repeat runs; inconclusive = weak or mixed curves; inactive = no such curve, though single readings can be large or run the other way.
Quantity Kind: outcome

compound="CC1OC1C1CCC2(C)OC2C1 (configuration not stated)" quantity_kind=outcome val=inactive
compound=CCCCN(CCC(=O)OCC)C(C)=O quantity_kind=outcome val=inactive
compound=CCCCc1nc(Cl)c(CO)n1Cc1ccc(-c2ccccc2-c2nn[nH]n2)cc1 quantity_kind=outcome val=inactive
compound=Cc1ncc([C@@H](CCCCCCc2ccc3c(n2)NCCC3)CC(=O)O)cn1 quantity_kind=outcome val=inactive
compound=c1coc(CNc2ncnc3nc[nH]c23)c1 quantity_kind=outcome val=inactive
compound=CC(C)(C)OC(=O)c1cccc(N)c1 quantity_kind=outcome val=inactive
compound=Cc1ccnc(NS(=O)(=O)c2ccc(N)cc2)n1 quantity_kind=outcome val=inactive

###

- Target Entity: Cytochrome P450 2C19 (Homo sapiens)
- Assay Summary: Cytochrome P450 Family 2 Subfamily C Member 19 (CYP2C19) small molecule antagonists: luciferase reporter qHTS assay (AID 1671197); note: nearly all actives have a fitted effect of over 65% in size; note: potency is the fitted concentration of half-maximal effect
- Setup Conditions: P450-Glo CYP2C19 enzyme, luciferin luminescence, 1 h; series mostly up to 52.9 µM
Records with an inconclusive call do not appear. The source made the active and inactive calls. The call rests on the fitted dose curve; in most records, active means well fitted inhibition curve with a large enough effect in the repeat runs; inconclusive means weak or mixed curves; inactive means no such curve, though single readings can be large or run the other way.
Quantity Kind: Potency

compound=CCCCc1nc(Cl)c(CO)n1Cc1ccc(-c2ccccc2-c2nn[nH]n2)cc1 val=inactive
compound="COc1cc(C(=O)OC(COCCC(C)C)CN2CCOCC2)cc(OC)c1OC (configuration not stated)" val="3.47 µM (active)"
compound=O=Cc1cccc(Br)c1 val="18.3 µM (active)"
compound=O=C(CO)[C@@H](O)[C@H](O)[C@@H](O)CO val=inactive
compound=CC1(C)[C@@H]2CC[C@@]1(C)[C@H](O)C2 val=inactive
compound=COc1ccc2cc1Oc1cc3c(cc1OC)CC[N+](C)(C)[C@H]3Cc1ccc(cc1)Oc1c(OC)c(OC)cc3c1[C@@H](C2)[N+](C)(C)CC3 val=inactive
compound=Cc1ccc(-c2ncc(Cl)cc2-c2ccc(S(C)(=O)=O)cc2)cn1 val=inactive
compound="CC(C#N)(CCC(=O)O)N=NC(C)(C#N)CCC(=O)O (configuration not stated)" val=inactive
compound="CCN1C=CN(C)C1C (configuration not stated)" val=inactive
compound=CNCCO val=inactive
compound="CCC(C(=O)NC(=O)NC(C)=O)c1ccccc1 (configuration not stated)" val=inactive
compound=CCCCN(CCC(=O)OCC)C(C)=O val="35.6 µM (active)"

###

- Assay Summary: qHTS assay to identify small molecule antagonists of the estrogen related receptor (ERR) signaling pathway (AID 1224819;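 note: luminescence from an ERR-driven luciferase reporter measured with One-Glo reagent; nearly all actives have a fitted effect of over 50% in size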)
- Setup Conditions: ERR reporter cell line, luciferase inhibition; series mostly up to 46.1 µM
Results filed as inconclusive are left out. Active and inactive are the calls of the source. The call rests on the fitted dose curve; in most records, active means well fitted inhibition curve with a large enough effect in the repeat runs; inconclusive means weak or mixed curves; inactive means no such curve, though single readings can be large or run the other way.
Quantity Kind: outcome

compound=Nc1ccn([C@@H]2O[C@H](CO)[C@@H](O)[C@@H]2O)c(=O)n1 val=inactive
compound=CN(C)C(=O)Oc1ccc[n+](C)c1 val=inactive
compound=Cc1ccc(C(=O)Nc2ccc(S(=O)(=O)O)c3cc(S(=O)(=O)O)cc(S(=O)(=O)O)c23)cc1NC(=O)c1cccc(NC(=O)Nc2cccc(C(=O)Nc3cc(C(=O)Nc4ccc(S(=O)(=O)O)c5cc(S(=O)(=O)O)cc(S(=O)(=O)O)c45)ccc3C)c2)c1 val=inactive
compound="CNCC(O)c1ccc(O)c(O)c1 (centres undefined)" val=inactive
